tested on: cytochrome P-450 dependent retinoic acid metabolism; assay: RA metabolism assay: in vitro inhibition of retinoic acid metabolism by P-450 inhibitors; details: male, rat, rat liver microsomes, pH 7.4, probe 3H-retinoic acid (RA), 3 μM
assay.endpoint: inhibition at 15 min, 100 μM (%)

{"compound": "Brc1ccc(-c2csnn2)cc1 [4-(4-Bromophenyl)-1,2,3-thiadiazole]", "test.target": "cytochrome P-450 dependent retinoic acid metabolism", "assay.endpoint": "inhibition at 15 min, 100 μM", "relation.symbol": "=", "readout.number": 11.6}
{"compound": "CN1C(=O)CC(c2ccccc2)C1=O (stereo not drawn) [Phensuximide]", "test.target": "cytochrome P-450 dependent retinoic acid metabolism", "assay.endpoint": "inhibition at 15 min, 100 μM", "relation.symbol": "=", "readout.number": 3.5}
{"compound": "Clc1ccc(COC(Cn2ccnc2)c2ccc(Cl)cc2Cl)cc1 (stereo not drawn) [Econazole]", "test.target": "cytochrome P-450 dependent retinoic acid metabolism", "assay.endpoint": "inhibition at 15 min, 100 μM", "relation.symbol": "=", "readout.number": 14}
{"compound": "O=C(Cn1ccnc1)c1ccc2ccccc2c1 [Nafimidone]", "test.target": "cytochrome P-450 dependent retinoic acid metabolism", "assay.endpoint": "inhibition at 15 min, 100 μM", "relation.symbol": "=", "readout.number": 12}
{"compound": "Clc1ccccc1C(c1ccccc1)(c1ccccc1)n1ccnc1 [Clotrimazole]", "test.target": "cytochrome P-450 dependent retinoic acid metabolism", "assay.endpoint": "inhibition at 15 min, 100 μM", "relation.symbol": "=", "readout.number": 34.4}
{"compound": "Clc1ccc(COC(Cn2ccnc2)c2ccc(Cl)cc2Cl)c(Cl)c1 (stereo not drawn) [Miconazole]", "test.target": "cytochrome P-450 dependent retinoic acid metabolism", "assay.endpoint": "inhibition at 15 min, 100 μM", "relation.symbol": "=", "readout.number": 13.5}
{"compound": "CCC1(c2ccc(N)cc2)CCC(=O)NC1=O (stereo not drawn) [Aminoglutethimide]", "test.target": "cytochrome P-450 dependent retinoic acid metabolism", "assay.endpoint": "inhibition at 15 min, 100 μM", "relation.symbol": "=", "readout.number": 30.8}
{"compound": "CCC(C)n1ncn(-c2ccc(N3CCN(c4ccc(OCC5COC(Cn6cncn6)(c6ccc(Cl)cc6Cl)O5)cc4)CC3)cc2)c1=O (stereo not drawn) [Itraconazole]", "test.target": "cytochrome P-450 dependent retinoic acid metabolism", "assay.endpoint": "inhibition at 15 min, 100 μM", "relation.symbol": ">", "readout.number": 50}
{"compound": "c1ccc(-c2ccc(C(c3ccccc3)n3ccnc3)cc2)cc1 (stereo not drawn) [Bifonazole]", "test.target": "cytochrome P-450 dependent retinoic acid metabolism", "assay.endpoint": "inhibition at 15 min, 100 μM", "relation.symbol": "=", "readout.number": 47.5}
{"compound": "NCCc1c[nH]cn1 [Histamine]", "test.target": "cytochrome P-450 dependent retinoic acid metabolism", "assay.endpoint": "inhibition at 15 min, 100 μM", "relation.symbol": "=", "readout.number": 0}
{"compound": "c1ccc2[nH]c(-c3cscn3)nc2c1 [Thiabendazole]", "test.target": "cytochrome P-450 dependent retinoic acid metabolism", "assay.endpoint": "inhibition at 15 min, 100 μM", "relation.symbol": "=", "readout.number": -4.31}
{"compound": "O=C(O)c1cc(-c2ccc(F)cc2F)ccc1O [Diflunisal]", "test.target": "cytochrome P-450 dependent retinoic acid metabolism", "assay.endpoint": "inhibition at 15 min, 100 μM", "relation.symbol": "=", "readout.number": 2}
{"compound": "CC(=O)Oc1ccccc1C(=O)O [Aspirin]", "test.target": "cytochrome P-450 dependent retinoic acid metabolism", "assay.endpoint": "inhibition at 15 min, 100 μM", "relation.symbol": "=", "readout.number": 5}
{"compound": "O=c1ccc2ccccc2o1 [Coumarin]", "test.target": "cytochrome P-450 dependent retinoic acid metabolism", "assay.endpoint": "inhibition at 15 min, 100 μM", "relation.symbol": "=", "readout.number": 37}
{"compound": "COc1ccc2c(c1)c(CC(=O)O)c(C)n2C(=O)c1ccc(Cl)cc1 [Indomethacin]", "test.target": "cytochrome P-450 dependent retinoic acid metabolism", "assay.endpoint": "inhibition at 15 min, 100 μM", "relation.symbol": "=", "readout.number": 0}
{"compound": "c1csc(-c2nnco2)c1 [2-(Thiophen-2-yl)-1,3,4-oxadiazole]", "test.target": "cytochrome P-450 dependent retinoic acid metabolism", "assay.endpoint": "inhibition at 15 min, 100 μM", "relation.symbol": "=", "readout.number": 0}
{"compound": "CC(=O)N1CCN(c2ccc(OCC3COC(Cn4ccnc4)(c4ccc(Cl)cc4Cl)O3)cc2)CC1 (stereo not drawn) [Ketoconazole]", "test.target": "cytochrome P-450 dependent retinoic acid metabolism", "assay.endpoint": "inhibition at 15 min, 100 μM", "relation.symbol": "=", "readout.number": 87.5}
{"compound": "COc1ccc2ccc(=O)oc2c1 [7-Methoxycoumarin]", "test.target": "cytochrome P-450 dependent retinoic acid metabolism", "assay.endpoint": "inhibition at 15 min, 100 μM", "relation.symbol": "=", "readout.number": 11.7}
{"compound": "C[C@@H]1[C@H](O)[C@@H](C)/C=C/C=C/C=C/C=C/C=C/C=C/C=C/[C@H](O[C@@H]2O[C@H](C)[C@@H](O)[C@H](N)[C@@H]2O)C[C@@H]2O[C@](O)(C[C@@H](O)C[C@@H](O)[C@H](O)CC[C@@H](O)C[C@@H](O)CC(=O)O[C@H]1C)C[C@H](O)[C@H]2C(=O)O [Amphotericin]", "test.target": "cytochrome P-450 dependent retinoic acid metabolism", "assay.endpoint": "inhibition at 15 min, 100 μM", "relation.symbol": "=", "readout.number": 6.24}
{"compound": "CN/C(=N/CCSCc1nc[nH]c1C)NC#N [Cimetidine]", "test.target": "cytochrome P-450 dependent retinoic acid metabolism", "assay.endpoint": "inhibition at 15 min, 100 μM", "relation.symbol": "=", "readout.number": 1}
{"compound": "Cc1nc2cc(-c3ccccc3)ccc2o1 [2-Methyl-5-phenyl-1,3-benzoxazole]", "test.target": "cytochrome P-450 dependent retinoic acid metabolism", "assay.endpoint": "inhibition at 15 min, 100 μM", "relation.symbol": "=", "readout.number": 18}
